test: Stability of the compound in artificial intestinal fluid assessed as compound remaining measured upto 8 hrs by HPLC analysis; format: ADME; conditions: read-out: Stability
MEASURE: remaining at 8 h

// solved cases for remaining at 8 h follow
SMILES DATA: Nc1nc(Nc2ccccc2)nc(-c2cc(Cl)ccc2O)n1
remaining at 8 h: > 90%

SMILES DATA: Nc1nc(NCCc2ccccc2)nc(-c2cc(Cl)ccc2O)n1
remaining at 8 h: > 90%

// below: remaining at 8 h requested for another compound
**Query** Please look up its remaining at 8 h: `O=C(Cn1cc(Br)c(=O)n(CC(=O)Nc2ccc(Br)cn2)c1=O)Nc1ccc(Br)cn1`
**Result** > 90%
